Test Summary: Phase 1 Part 2: cerebrospinal fluid (CSF) pharmacokinetics after multiple BID doses
Format: in vivo, human
Condition Details: both sexes, human, oral; CSF, 500 mg BID, Day 12, elderly subjects, arithmetic mean; read-out: t1/2 (converted)
Property Name: half-life (h)
Just the number in h, nothing appended.

**Query** Given the molecule CC(=O)Nc1nnc(N2CCN([C@@H](C)c3ccc4c(c3)OCO4)CC2)s1 [Compound (I)] , write its reported half-life.
**Result** 10.8

----------
Test Summary: Phase 1 Part 1a: single rising oral doses, fasted, plasma pharmacokinetics
Format: in vivo, human
Condition Details: male, human, plasma, po, 600 mg, single oral dose 600 mg, fasted, healthy male subjects, plasma, arithmetic mean; read-out: t1/2 (converted)
Property Name: half-life (h)
Just the number in h, nothing appended.

**Query** Given the compound `CC(=O)Nc1nnc(N2CCN([C@@H](C)c3ccc4c(c3)OCO4)CC2)s1` , write its reported half-life.
**Result** 6.07

----------
Test Summary: Phase 1 Part 1a: single rising oral doses, fasted, plasma pharmacokinetics
Assay type: in vivo, human
Condition Details: human; single oral dose 160 mg, fasted, healthy male subjects, plasma, arithmetic mean
Property Name: AUC(0-inf) (ng·h/mL)
Just the number in ng·h/mL, nothing appended.

**Query** Given the compound CC(=O)Nc1nnc(N2CCN([C@@H](C)c3ccc4c(c3)OCO4)CC2)s1 [Compound (I)] , write its reported AUC(0-inf).
**Result** 7010

----------
Test Summary: Phase 1 Part 2: multiple BID doses for 12 days, plasma pharmacokinetics
Assay type: in vivo, human
Condition Details: both sexes, human, plasma, oral, 500 mg, 500 mg BID, Day 12, elderly subjects, plasma, arithmetic mean; read-out: t1/2 (converted)
Property Name: half-life (min)
Just the number in min, nothing appended.

**Query** Given the molecule `CC(=O)Nc1nnc(N2CCN([C@@H](C)c3ccc4c(c3)OCO4)CC2)s1` , write its reported half-life.
**Result** 642

----------
Test Summary: Phase 1 Part 2: multiple BID doses for 12 days, plasma pharmacokinetics
Format: in vivo, human
Condition Details: both sexes, human, plasma, oral, 250 mg, 250 mg BID, Day 1 (first dose), elderly subjects, plasma, arithmetic mean
Property Name: Cmax (ng/mL)
Just the number in ng/mL, nothing appended.

**Query** Given the compound CC(=O)Nc1nnc(N2CCN([C@@H](C)c3ccc4c(c3)OCO4)CC2)s1 [Compound (I)] , write its reported Cmax.
**Result** 3630

----------
Test Summary: Phase 1 Part 1a: single rising oral doses, fasted, plasma pharmacokinetics
Format: in vivo, human
Condition Details: human; single oral dose 20 mg, fasted, healthy male subjects, plasma, arithmetic mean
Property Name: AUC(0-inf) (ng·h/mL)
Just the number in ng·h/mL, nothing appended.

**Query** Given the compound CC(=O)Nc1nnc(N2CCN([C@@H](C)c3ccc4c(c3)OCO4)CC2)s1 [Compound (I)] , write its reported AUC(0-inf).
**Result** 473

----------
Test Summary: Phase 1 Part 2: cerebrospinal fluid (CSF) pharmacokinetics after multiple BID doses
Format: in vivo, human
Condition Details: both sexes, human, oral; CSF, 250 mg BID, Day 12, elderly subjects, median (min, max)
Property Name: Tmax (h)
Just the number in h, nothing appended.

**Query** Given the compound `CC(=O)Nc1nnc(N2CCN([C@@H](C)c3ccc4c(c3)OCO4)CC2)s1` , write its reported Tmax.
**Result** 3

----------
Test Summary: Phase 1 Part 2: multiple BID doses for 12 days, plasma pharmacokinetics
Assay type: in vivo, human
Condition Details: both sexes, human, plasma, oral, 500 mg, 500 mg BID, Day 12, elderly subjects, plasma, arithmetic mean
Description: The study was a single-centre, randomized, placebo-controlled single- and multiple ascending dose study in healthy male and female (no childbearing potential) volunteers aged 18-80 years. Study objectives were safety, tolerability, food effect and pharmacokinetics. […] Furthermore, multiple-dose safety, tolerability, pharmacokinetics, CSF drug levels and pharmacodynamics were assessed in elderly (age 55-80 years) male or healthy non-child-bearing potential female volunteers. […]
Property Name: Cmax (ng/mL)
Just the number in ng/mL, nothing appended.

**Query** Given the compound `CC(=O)Nc1nnc(N2CCN([C@@H](C)c3ccc4c(c3)OCO4)CC2)s1` , write its reported Cmax.
**Result** 6670
